The reported numbers originate from ChEMBL document CHEMBL2311406.

Test target: Menin (Homo sapiens, UniProt O00255)
Sequence (O00255 whole entry): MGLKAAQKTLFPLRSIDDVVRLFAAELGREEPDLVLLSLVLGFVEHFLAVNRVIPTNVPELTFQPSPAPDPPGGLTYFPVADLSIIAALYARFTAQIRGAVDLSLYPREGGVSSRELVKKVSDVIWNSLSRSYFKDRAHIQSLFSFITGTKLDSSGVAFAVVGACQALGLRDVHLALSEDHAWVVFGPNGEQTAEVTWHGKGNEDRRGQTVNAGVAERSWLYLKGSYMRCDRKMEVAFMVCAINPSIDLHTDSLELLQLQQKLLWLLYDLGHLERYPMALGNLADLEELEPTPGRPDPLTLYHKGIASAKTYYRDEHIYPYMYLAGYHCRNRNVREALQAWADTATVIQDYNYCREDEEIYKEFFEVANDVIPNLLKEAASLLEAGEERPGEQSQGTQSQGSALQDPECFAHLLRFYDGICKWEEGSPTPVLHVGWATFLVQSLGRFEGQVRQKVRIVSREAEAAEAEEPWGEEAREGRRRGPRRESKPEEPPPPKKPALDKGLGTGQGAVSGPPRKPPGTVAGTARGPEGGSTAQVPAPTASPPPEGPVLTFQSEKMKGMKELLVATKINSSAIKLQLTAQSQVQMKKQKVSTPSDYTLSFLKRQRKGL
pIC50: −log10 of the molar value. *1 amine or outer side, *2 acyl side, *3 side chain or, on linkers, in order; H or OH if unused. Where a SMILES comes first, the peptide text is derived from it. Bridges are numbered along the chain shown (N, C = ends). [ ]: non-standard residue; d: D form. hhhhLys = O=C([C@H](CCCCCCCCN[*:3])N[*:1])[*:2]; Phe(3-Me) = Cc1cccc(C[C@H](N)C(=O)O)c1; Ac5c = NC1(C(=O)O)CCCC1; Ac4c = NC1(C(=O)O)CCC1
Readout kind: pIC50

- Compound: "Cc1cccc(C[C@@H]2NC(=O)[C@@H](N)CCCCCCCCNC(=O)[C@@H]3CCCN3C(=O)[C@H](CCCNC(=N)N)NC(=O)C3(CCC3)NC(=O)[C@@H]3CCCN3C2=O)c1 (H-[hhhhLys][Phe(3-Me)]P[Ac4c]RP; lactam 1-C)"
  Test target: "Menin (Homo sapiens, UniProt O00255)"
  Assay value: 5.94
- Compound: "N=C(N)NCCC[C@@H]1NC(=O)C2(CCCC2)NC(=O)[C@@H]2CCCN2C(=O)[C@H](Cc2ccccc2)NC(=O)[C@@H](N)CCCCCCCCNC(=O)[C@@H]2CCCN2C1=O (H-[hhhhLys]FP[Ac5c]RP; lactam 1-C)"
  Test target: "Menin (Homo sapiens, UniProt O00255)"
  Assay value: 5.20
